biological target: Inadl_6, Q8NI35; experiment: holdup assay; set-up: key: below the threshold = too weak to quantify, mostly under pKd 3.1 to 4; details: plain residues with an end cap or a label only (N-terminal biotin on a linker: ado-ado)
Sequence (Q8NI35 1058-1167): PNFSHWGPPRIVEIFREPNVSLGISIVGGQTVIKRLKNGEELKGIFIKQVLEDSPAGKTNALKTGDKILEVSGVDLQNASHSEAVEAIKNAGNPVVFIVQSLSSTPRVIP
measure: pKd

binder	endpoint value
LVEEEEPMNL [HDAC7, Q8WUI4]	below the threshold
DFKHTKSFII [JAM2, P57087]	below the threshold
VCMGDHWFDV [PRKN, O60260]	3.7
HLSTRQGTCV [ATRNL1, Q5VV63]	below the threshold

Name the reported pKd value associated with the binder ADEMICITTL [CACNA1D, Q01668]
4.62

Name the reported pKd value associated with the binder MQILSKPEFI [NPSR1, Q6W5P4]
below the threshold

Name the reported pKd value associated with the binder SQDPKKPSRV [CBY2, Q8NA61]
below the threshold

Name the reported pKd value associated with the binder KSRPENGTVC [TMEM178B, H3BS89]
below the threshold
